- System: Lolium perenne (LOLPE)
- Test details: B1 Post-Emergence Efficacy - Test 1
- Assay type: in vivo
- Condition parameters: 1000 g/ha, after 13 days, five point scale
Value type: percentage damage caused to the plant, LOLPE

Would you kindly share the measured percentage damage caused to the plant, LOLPE for Cc1nn(C)c(=O)c(-c2c(F)ccc(Cl)c2CCc2ccccc2C(F)(F)F)c1O [Compound 1.066] ?
4 (4=60-79%)

Would you mind telling me what percentage damage caused to the plant, LOLPE value was observed for Cc1nn(C)c(=O)c(-c2c(F)ccc(Cl)c2CCc2ccc(C(F)(F)F)nc2)c1O [Compound 1.042] ?
5 (5=80-100%)

// percentage damage caused to the plant, LOLPE lookup, key: Cc1nn(C)c(=O)c(-c2c(F)ccc(Cl)c2/C=C/c2ccccc2)c1O [Compound 1.002]
4 (4=60-79%)

Quick check: percentage damage caused to the plant, LOLPE of Cc1nn(C)c(=O)c(-c2c(F)ccc(Cl)c2CCc2ccc(C(F)(F)F)cc2)c1OC(=O)C(C)C [Compound 1.095] ?
5 (5=80-100%)

Please look up its percentage damage caused to the plant, LOLPE: Cc1nn(C)c(=O)c(-c2c(F)ccc(Cl)c2CCc2ccc(Cl)cc2)c1O [Compound 1.012]
5 (5=80-100%)

percentage damage caused to the plant, LOLPE for Cc1nn(C)c(=O)c(-c2c(F)ccc(Cl)c2CCc2ccc(F)cc2)c1O [Compound 1.048] ?
5 (5=80-100%)

* * *

I'd be grateful if you could share measured Herbicidal activity GLXMA for these entries.
- System: Glycine max (GLXMA)
- Test details: B2 Post-Emergence Efficacy - Test 2
- Type: in vivo
- Condition parameters: 15 g/Ha, 15 days after application, 0-100 scale
# output: bare number, no unit

Kindly state the measured Herbicidal activity GLXMA obtained for Cc1nn(C)c(=O)c(-c2c(F)ccc(Cl)c2CCc2ccc(C(F)(F)F)nc2)c1O with Glycine max (GLXMA).
60

Can you look up Herbicidal activity GLXMA on Glycine max (GLXMA) for Cc1nn(C)c(=O)c(-c2c(F)ccc(Cl)c2CCc2ccc(F)cc2)c1OC(=O)C(C)C ?
40

Record lookup: for Glycine max (GLXMA), what Herbicidal activity GLXMA belongs to Cc1nn(C)c(=O)c(-c2c(F)ccc(Cl)c2CCc2ccc(C#N)cc2)c1O ?
70

// fetch Glycine max (GLXMA) Herbicidal activity GLXMA for Cc1nn(C)c(=O)c(-c2c(F)ccc(Cl)c2CCc2ccccc2C(F)(F)F)c1O
20

Tell me reported Herbicidal activity GLXMA for Cc1nn(C)c(=O)c(-c2c(F)ccc(Cl)c2CCc2ccc(F)cc2)c1O , tested with Glycine max (GLXMA).
70

* * *

- Tested on: Euphorbia hetrophylla (EPHHL)
- Test details: B2 Post-Emergence Efficacy - Test 2
- Format: in vivo
- Condition parameters: 60 g/Ha, 15 days after application, 0-100 scale
Field: Herbicidal activity EPHHL. Provide a value for each of the compounds that follow.
Just the number.

Lab request: please report Herbicidal activity EPHHL under test system Euphorbia hetrophylla (EPHHL) for Cc1nn(C)c(=O)c(-c2c(F)ccc(Cl)c2CCc2ccc(F)cc2)c1O
90

Give Herbicidal activity EPHHL (Euphorbia hetrophylla (EPHHL)) of the following compound: Cc1nn(C)c(=O)c(-c2c(F)ccc(Cl)c2CCc2ccc(Cl)cc2)c1OC(=O)C(C)C
100

Which measured Herbicidal activity EPHHL belongs to Cc1nn(C)c(=O)c(-c2c(F)ccc(Cl)c2CCc2ccc(F)cc2)c1OC(=O)C(C)C , tested on Euphorbia hetrophylla (EPHHL)?
100

Param readout = Herbicidal activity EPHHL; param system = Euphorbia hetrophylla (EPHHL); param query = Cc1nn(C)c(=O)c(-c2c(F)ccc(Cl)c2CCc2ccc(C(F)(F)F)nc2)c1O ; response: value
90

Form entry - test system: Euphorbia hetrophylla (EPHHL); read-out: Herbicidal activity EPHHL; compound: Cc1nn(C)c(=O)c(-c2c(F)ccc(Cl)c2CCc2ccc(C#N)cc2)c1O
90

For the record Cc1nn(C)c(=O)c(-c2c(F)ccc(Cl)c2CCc2ccccc2C(F)(F)F)c1O , what value of Herbicidal activity EPHHL is listed for Euphorbia hetrophylla (EPHHL)?
80
